Items are presented alongside their recorded z-score.
- ASSAY: S6 kinase pathway phospho-S6 level changes – cell-based, A549, cytoblot, luminescence, serum-stimulated, primary screen (AID 1158);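 also: serum-stimulated A549 lung adenocarcinoma cells; signal is phosphorylated S6 detected by cytoblot immunostaining with HRP secondary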
- TEST SETTINGS: 5 h, higher = more signal

{"columns": ["STRUCTURE NOTATION", "z-score"],
 "data": [
  ["COCCOC(=O)N1C(=O)[C@@]2(c3cc(C#CCC(C(=O)OC)C(=O)OC)ccc31)[C@H](C(=O)N1CCCCCCC1)[C@H]1C(=O)O[C@H](c3ccccc3)[C@H](c3ccccc3)N1[C@@H]2c1ccc(O)cc1", -0.0955],
  ["COc1ccc(CCNC(=O)[C@@H]2c3ccccc3C(=O)N(Cc3ccccc3C(F)(F)F)[C@H]2c2ccc(CO)cc2)cc1", -0.366],
  ["O=C(CS)NCCCCCNC(=O)[C@@H]1C[C@@H]2C(=O)N3CCC[C@H]3C(=O)N2[C@@H]1c1ccc(O)cc1", -0.244]
]}

----------
- ASSAY: binders from COS7 lysate, DM2A8 probe, primary screen, torsin A project, cell lysate, small-molecule microarray, fluorescence 635/667 (AID 1065)
- TEST SETTINGS: higher = more signal, COS7 lysate expressing mutant human TOR1A

{"columns": ["STRUCTURE NOTATION", "composite z-score"],
 "data": [
  ["CC(C)(C)OC(=O)CC[C@]1(C(=O)O)COC(c2ccc(OCCCO)cc2)=N1", 2.38],
  ["Cc1ccc(N2C(=O)c3ccccc3[C@](C)(C(=O)NC(C)C)[C@@H]2c2ccc(CO)cc2)nc1", -1.06],
  ["CCCC[C@H]1OB(O)C[C@H]2C1=C(COc1ccccc1)Cn1c(=O)n(-c3ccccc3)c(=O)n12", 0.556],
  ["CCCC=C(CCC)[C@@H](NS(=O)(=O)c1cccc2cccnc12)c1ccc(C(=O)OC)cc1", 1.19],
  ["COc1cccc(C[C@H]2C[C@@H](CO[Si](C(C)C)(C(C)C)C(C)C)N3C(=O)[C@]4(C(C)=O)O[C@]23[C@H]2C(=O)N(C)C(=O)[C@H]24)c1", 0.395],
  ["CCOC(=O)C[C@H]1[C@H](OC(=O)c2ccc(C(=O)c3ccccc3)cc2)[C@@H](NC(=O)C2CCCCC2)c2cc(OCCCO)ccc2N1C(=O)Cc1ccc(OC)cc1", 0.673]
]}

----------
- SYSTEM: Focal adhesion kinase 1 (Homo sapiens) (UniProt Q05397)
- Sequence (Q05397 whole entry, looked up): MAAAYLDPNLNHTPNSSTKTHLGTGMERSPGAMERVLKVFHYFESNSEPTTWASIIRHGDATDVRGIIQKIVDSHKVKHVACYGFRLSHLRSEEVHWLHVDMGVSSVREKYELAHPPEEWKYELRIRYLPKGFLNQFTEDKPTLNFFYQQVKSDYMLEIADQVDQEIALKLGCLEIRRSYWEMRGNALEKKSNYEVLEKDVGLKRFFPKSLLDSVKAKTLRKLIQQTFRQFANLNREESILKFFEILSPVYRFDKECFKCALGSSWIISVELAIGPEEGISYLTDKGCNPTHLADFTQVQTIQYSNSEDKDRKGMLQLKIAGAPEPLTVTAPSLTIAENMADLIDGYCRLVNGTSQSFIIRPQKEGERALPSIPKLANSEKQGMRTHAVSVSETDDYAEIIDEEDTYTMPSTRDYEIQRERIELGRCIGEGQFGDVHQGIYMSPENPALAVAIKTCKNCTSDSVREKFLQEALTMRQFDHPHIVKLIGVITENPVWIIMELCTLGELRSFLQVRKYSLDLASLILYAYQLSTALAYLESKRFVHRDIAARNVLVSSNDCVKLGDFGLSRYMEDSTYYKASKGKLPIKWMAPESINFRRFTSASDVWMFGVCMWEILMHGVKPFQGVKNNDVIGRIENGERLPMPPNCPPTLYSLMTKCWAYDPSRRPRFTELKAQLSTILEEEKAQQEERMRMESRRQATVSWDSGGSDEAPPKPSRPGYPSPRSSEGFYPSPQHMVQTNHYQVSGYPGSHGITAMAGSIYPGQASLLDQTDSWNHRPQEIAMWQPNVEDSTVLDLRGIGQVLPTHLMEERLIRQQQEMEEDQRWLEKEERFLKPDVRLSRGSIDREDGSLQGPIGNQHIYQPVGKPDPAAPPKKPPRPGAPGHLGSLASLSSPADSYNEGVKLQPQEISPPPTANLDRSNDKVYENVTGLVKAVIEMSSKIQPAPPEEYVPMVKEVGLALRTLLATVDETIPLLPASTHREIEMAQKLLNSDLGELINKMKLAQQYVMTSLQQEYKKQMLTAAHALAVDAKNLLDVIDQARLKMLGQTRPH
- ASSAY: PTK2 protein binding on printed compound slides – biochemical, small-molecule microarray, 635/667 nm fluorescence, BSA, DTT, primary screen (AID 1130);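 also: composite of spot emission at 667 nm and signal to noise over triplicate slides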
- TEST SETTINGS: 635 nm fluorescence, higher = more signal

{"columns": ["COMPOUND", "composite z-score"],
 "data": [
  ["CCCC=C(CCC)[C@@H](NS(=O)(=O)c1cccc2cccnc12)c1ccc(C(=O)OC)cc1", 0.542],
  ["COCCOC(=O)N1C(=O)[C@@]2(c3cc(C#Cc4ccc(OC)cc4)ccc31)[C@H](C(=O)N1CCc3cc(OC)c(OC)cc3C1)[C@H]1C(=O)O[C@H](c3ccccc3)[C@H](c3ccccc3)N1[C@@H]2c1ccc(OCCO)cc1", 0.5],
  ["O=C1O[C@@H](c2ccccc2)[C@@H](c2ccccc2)N2[C@@H](c3ccc(O)cc3)[C@]3(C(=O)Nc4ccc(C#CC5(O)CCCCCC5)cc43)[C@@H](C(=O)N3CCN(c4ncccn4)CC3)[C@H]12", 0.56],
  ["COc1cc(NN2C(C(O)c3ccc(I)cc3)C=CC3C(=O)N(C)C(=O)C32)cc(OC)c1OC (stereo unspecified)", 1.2],
  ["Cc1ccc(S[C@]2(C(=O)NCC(C)C)CC(=O)N(C3CCCCC3)[C@@H]2c2ccc(CO)cc2I)cc1", 0.558],
  ["CC(C)C[C@@H]1NC(=O)[C@@]23C(=O)N[C@@H](Cc4ccccc4)C2[C@H](C)[C@@]2(C)O[C@H]2C3/C=C/C/C=C\\CNC(=O)[C@@H]2CCCN2C1=O (stereo partly specified)", -0.0278]
]}

Taken from PubChem BioAssay.
